Consider the following sequences; for each one, report its pKd.
molecular target: HLA-B*15:01; test: IEDB peptide-MHC binding, purified MHC/competitive/fluorescence; filed as Kd, often an IC50 or EC50 that approximates it; bounds were set here for any values at or beyond the usual limits of such assays; conditions: source organism: Bacillus cereus G9241
// returns pKd (minus log10 of molar concentration), number only

Query: Which value of pKd has been reported for FVHDSVQYF in the records?
Result: 7.54

Query: Continue with LTVVPLMAF
Result: 6.83

* * *

biological target: HLA-A*23:01; assay: IEDB peptide-MHC binding, purified MHC/direct/fluorescence; filed as Kd, often an IC50 or EC50 that approximates it; bounds were set here for any values at or beyond the usual limits of such assays; conditions: source organism: Choclo virus
pKd: −log10 of the molar value.
Property: pKd

Query: Which pKd is reported for this sequence? KACDLAMCY
Result: ≤ 4.70
